From: PubChem BioAssay

A collection of compounds and their measured percent response of DMSO control
- TEST_METHOD_NOTES: TOR pathway RTG branch CIT2 reporter changes – S. cerevisiae, GFP fusion, multiplex flow cytometry, primary screen (AID 1870);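 further: barcoded CIT2-GFP strain pooled with four other GFP strains with rapamycin as positive control; median GFP fluorescence per well over plate mean of DMSO wells so 100% = DMSO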
- CONDITION_DESCRIPTION: S. cerevisiae CIT2-GFP expression, 3 h, at 10 µM, hits give high values
Expressed in %, but write only the number.

See these solved cases before continuing.
>  <COMPOUND>
CC(C)=CCCC1=CCC2C(=O)NNC(=O)C2C1 (configuration not stated)

>  <percent response of DMSO control, %>
110

$$$$
>  <COMPOUND>
CCc1cc(/C(Cc2ccccn2)=N\O)c(O)cc1O

>  <percent response of DMSO control, %>
107

$$$$

Incoming: GET /values?readout=percent response of DMSO control&item= C[C@]12CC[C@@H]3c4ccc(O)cc4CC[C@H]3[C@@H]1CC[C@@H]2O
Outgoing: 98.2

Incoming: GET /values?readout=percent response of DMSO control&item= O=c1[nH]cc(F)c(=O)[nH]1
Outgoing: 127

Incoming: GET /values?readout=percent response of DMSO control&item= CC(=O)OCC[N+](C)(C)C
Outgoing: 101

Incoming: GET /values?readout=percent response of DMSO control&item= COc1ccc(/C=C2\CC/C(=C\c3ccc(OC)c(OC)c3)C2=O)cc1OC
Outgoing: 97.1

Incoming: GET /values?readout=percent response of DMSO control&item= CCCCCCCCNC(C)C(O)c1ccc(SC(C)C)cc1 (configuration not stated)
Outgoing: 102

###

- Test system: Ras-related protein Rab-7a (dog), GTP binding
- TEST_METHOD_NOTES: blockers of fluorescent GTP binding to Rab7 – biochemical, wildtype, multiplex bead flow cytometry, dose response (AID 1336)
- CONDITION_DESCRIPTION: bead-based flow cytometry; series mostly up to 100 µM
Entries with a potency or affinity are not part of this list. Activity calls are given as the source filed them. No rule for the calls is given here.
OBSERVABLE: GTP binding, % of control

See these solved cases before continuing.
>  <SMILES_DATA>
O=c1cc(N2CCc3ccccc3C2)[nH]c(=O)n1-c1ccc(Cl)cc1

>  <OBSERVED>
inactive

$$$$
>  <SMILES_DATA>
O=S1(=O)N=C(N(CCO)/N=C/c2ccccc2)c2ccccc21

>  <OBSERVED>
inactive

$$$$
>  <SMILES_DATA>
O=C(O)Cn1cc(C(=O)C2CCCCC2)c2ccccc21

>  <OBSERVED>
inactive

$$$$
>  <SMILES_DATA>
O=C(O)c1ccc(NS(=O)(=O)c2ccc3c(c2)C(=O)c2ccccc2C3=O)cc1

>  <OBSERVED>
inactive

$$$$
>  <SMILES_DATA>
COc1ccccc1OCc1ccoc1C(=O)O

>  <OBSERVED>
inactive

$$$$

# next compound below
Incoming: GET /values?readout=GTP binding, % of control&item= COCCNC(=O)c1cnn2c(C(F)F)cc(-c3ccccc3)nc12
Outgoing: inactive

###

- MEASURED_TARGET: Beta-2 adrenergic receptor (Homo sapiens)
- TEST_METHOD_NOTES: agonist-induced loss of surface beta2AR – cell-based, FAP fluorogen, flow cytometry, validation set, pilot screen (AID 504459);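 further: agonist-driven loss of surface beta2AR via internalization measured by FAP dye flow cytometry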
- CONDITION_DESCRIPTION: Am2.2-beta2AR cells, at 10 µM, hits give high values
A collection of molecules and their measured response
Expressed in %, but write only the number.

>  <MOLECULE>
COc1cc(CNCCc2c[nH]c3ccccc23)cc(Cl)c1OCC(N)=O

>  <response / %>
14.8

$$$$
>  <MOLECULE>
COc1ccc(CCN(C)CCCC(C#N)(c2cc(OC)c(OC)c(OC)c2)C(C)C)cc1OC (stereo unspecified)

>  <response / %>
-12.7

$$$$
>  <MOLECULE>
CCC(C(=O)OCCN(CC)CC)c1ccccc1 (stereo unspecified)

>  <response / %>
8.98

$$$$

Incoming: GET /values?readout=response&item= N=c1c[n+](N2CCOCC2)[n-]o1
Outgoing: -6.36

Incoming: GET /values?readout=response&item= COc1ccc(CNC(=O)N[C@H](C(=O)O)C(C)C)cc1OC
Outgoing: -4.83

Incoming: GET /values?readout=response&item= CCCNCC(O)COc1ccccc1C(=O)CCc1ccccc1 (stereo unspecified)
Outgoing: -7.14

Incoming: GET /values?readout=response&item= Cc1ccc(S(=O)(=O)NC(C(=O)Oc2cc3oc(=O)cc(C)c3cc2Cl)C(C)C)cc1 (stereo unspecified)
Outgoing: -20.1

Incoming: GET /values?readout=response&item= CC(NC(=O)c1ccc(N2CCNCC2)c([N+](=O)[O-])c1)C12CC3CC(CC(C3)C1)C2 (stereo unspecified)
Outgoing: -1.73

Incoming: GET /values?readout=response&item= O=C1C(Cc2ccccc2)NC(=S)N1c1ccccc1 (stereo unspecified)
Outgoing: -16.9

Incoming: GET /values?readout=response&item= Nc1nc(Cl)nc2c1ncn2[C@H]1C[C@H](O)[C@@H](CO)O1
Outgoing: -24.5

Incoming: GET /values?readout=response&item= CCC(CO)NCCNC(CC)CO (stereo unspecified)
Outgoing: 3.66
